Hello, the source for this data is patent US20100068208A1, in case you need it.

test system: RBL-2H3; experiment: Intracellular calcium increasing activity in RBL2H3 (FLIPR); assay type: cell-based; conditions: RBL2H3, 1 μM
assay_metric: maximum activity in the calcium increasing effect
I'd appreciate a reply containing only the number, no unit.

So, CNc1ccc2oc(C[C@H]3O[C@@]4(CC[C@H]3C)O[C@H]([C@H](C)C(=O)c3ccc[nH]3)[C@H](C)C[C@H]4C)nc2c1C(=O)O [A23187] ? Its maximum activity in the calcium increasing effect was 25338

Note to self: maximum activity in the calcium increasing effect recorded for CSCC[C@H](NC(=O)[C@H](CC(C)C)NC(=O)CNC(=O)[C@H](Cc1ccccc1)NC(=O)[C@H](Cc1ccccc1)NC(=O)[C@H](CCC(N)=O)NC(=O)[C@H](CCC(N)=O)NC(=O)[C@@H]1CCCN1C(=O)[C@H](CCCCN)NC(=O)[C@@H]1CCCN1C(=O)[C@@H](N)CCCNC(=N)N)C(N)=O [substance P] was 95

Sure, the documented maximum activity in the calcium increasing effect for CSCC[C@H](NC(=O)[C@H](CCCNC(=N)N)NC(=O)[C@@H](N)CC(=O)O)C(=O)N1CCC[C@H]1C(=O)N[C@H]1CSSC[C@@H](C(=O)N[C@@H](CCCCN)C(=O)O)NC(=O)[C@H](CO)NC(=O)[C@H](CO)NC(=O)[C@H](Cc2ccccc2)NC(=O)[C@H]([C@@H](C)O)NC(=O)[C@H](CCCCN)NC(=O)[C@H](Cc2c[nH]c3ccccc23)NC(=O)[C@H](Cc2ccccc2)NC(=O)[C@H](Cc2ccccc2)NC(=O)[C@H](CC(N)=O)NC(=O)[C@H](CCCNC(=N)N)NC1=O [cortistatin-17] is 49
